System: Staphylococcus aureus CMX 686B
Test: In vitro antibacterial activity, agar dilution MIC
Assay type: cell-based
Conditions: CMX686B, S. aureus CMX 686B, Brain Heart Infusion agar, 20-24 hours, read-out: MIC
property.measured: MIC
# output: numeric value plus its unit

CC[C@H]1OC(=O)[C@H](C)[C@@H](O[C@H]2C[C@@](C)(OC)[C@@H](O)[C@H](C)O2)[C@H](C)[C@@H](O[C@@H]2O[C@H](C)C[C@H](N(C)C)[C@H]2O)[C@](C)(O)C[C@@H](C)[C@@H](N2CCN(C(C)=O)CC2)[C@H](C)[C@@H](O)[C@]1(C)O [Example 16]; 1.56 µg/mL

Consider the following items and state reported MIC for each.
1. CC[C@H]1OC(=O)[C@H](C)[C@@H](O[C@H]2C[C@@](C)(OC)[C@@H](O)[C@H](C)O2)[C@H](C)[C@@H](O[C@@H]2O[C@H](C)C[C@H](N(C)C)[C@H]2O)[C@](C)(O)C[C@@H](C)[C@@H](N2CCN(C(=O)OCc3ccccc3)CC2)[C@H](C)[C@@H](O)[C@]1(C)O [Example 18]
2. CC[C@H]1OC(=O)[C@H](C)[C@@H](O[C@H]2C[C@@](C)(OC)[C@@H](O)[C@H](C)O2)[C@H](C)[C@@H](O[C@@H]2O[C@H](C)C[C@H](N(C)C)[C@H]2O)[C@](C)(O)C[C@@H](C)[C@@H](N2CCOCC2)[C@H](C)[C@@H](O)[C@]1(C)O [Example 19]
3. CC[C@H]1OC(=O)[C@H](C)[C@@H](O[C@H]2C[C@@](C)(OC)[C@@H](O)[C@H](C)O2)[C@H](C)[C@@H](O[C@@H]2O[C@H](C)C[C@H](N(C)C)[C@H]2O)[C@](C)(O)C[C@@H](C)[C@@H](N2CCCCC2)[C@H](C)[C@@H](O)[C@]1(C)O [Example 5]

Reply text:
1: 0.78 µg/mL; 2: 0.39 µg/mL; 3: 0.39 µg/mL

====

For each record, write down the corresponding MIC.
Tested on: Enterococcus faecium ATCC 8043
Assay: In vitro antibacterial activity, agar dilution MIC
Format: cell-based
Conditions: ATCC8043, E. faecium ATCC 8043, Brain Heart Infusion agar, 20-24 hours, read-out: MIC
Numbers only, in µg/mL.

CC[C@H]1OC(=O)[C@H](C)[C@@H](O[C@H]2C[C@@](C)(OC)[C@@H](O)[C@H](C)O2)[C@H](C)[C@@H](O[C@@H]2O[C@H](C)C[C@H](N(C)C)[C@H]2O)[C@](C)(O)C[C@@H](C)[C@@H](N2CCCC2)[C@H](C)[C@@H](O)[C@]1(C)O; 0.39

Inquiry: Which MIC is listed for CC[C@H]1OC(=O)[C@H](C)[C@@H](O[C@H]2C[C@@](C)(OC)[C@@H](O)[C@H](C)O2)[C@H](C)[C@@H](O[C@@H]2O[C@H](C)C[C@H](N(C)C)[C@H]2O)[C@](C)(O)C[C@@H](C)[C@@H](N2CCN(C(=O)c3ccccc3)CC2)[C@H](C)[C@@H](O)[C@]1(C)O ?
Reply text: 0.39

====

System: Haemophilus influenzae 519A
For each record, write down the corresponding MIC.

CC[C@H]1OC(=O)[C@H](C)[C@@H](O[C@H]2C[C@@](C)(OC)[C@@H](O)[C@H](C)O2)[C@H](C)[C@@H](O[C@@H]2O[C@H](C)C[C@H](N(C)C)[C@H]2O)[C@](C)(O)C[C@@H](C)[C@@H](N2CCC(C)(C)CC2)[C@H](C)[C@@H](O)[C@]1(C)O; 0.5 µg/mL
CC[C@H]1OC(=O)[C@H](C)[C@@H](O[C@H]2C[C@@](C)(OC)[C@@H](O)[C@H](C)O2)[C@H](C)[C@@H](O[C@@H]2O[C@H](C)C[C@H](N(C)C)[C@H]2O)[C@](C)(O)C[C@@H](C)[C@@H](N2CCOCC2)[C@H](C)[C@@H](O)[C@]1(C)O; 2 µg/mL
CC[C@H]1OC(=O)[C@H](C)[C@@H](O[C@H]2C[C@@](C)(OC)[C@@H](O)[C@H](C)O2)[C@H](C)[C@@H](O[C@@H]2O[C@H](C)C[C@H](N(C)C)[C@H]2O)[C@](C)(O)C[C@@H](C)[C@@H](N2CCC(=O)CC2)[C@H](C)[C@@H](O)[C@]1(C)O; 0.25 µg/mL
CC[C@H]1OC(=O)[C@H](C)[C@@H](O[C@H]2C[C@@](C)(OC)[C@@H](O)[C@H](C)O2)[C@H](C)[C@@H](O[C@@H]2O[C@H](C)C[C@H](N(C)C)[C@H]2O)[C@](C)(O)C[C@@H](C)[C@@H](N2CCC(OC)(OC)CC2)[C@H](C)[C@@H](O)[C@]1(C)O; 0.25 µg/mL
CC[C@H]1OC(=O)[C@H](C)[C@@H](O[C@H]2C[C@@](C)(OC)[C@@H](O)[C@H](C)O2)[C@H](C)[C@@H](O[C@@H]2O[C@H](C)C[C@H](N(C)C)[C@H]2O)[C@](C)(O)C[C@@H](C)[C@@H](N2CCCCC2)[C@H](C)[C@@H](O)[C@]1(C)O; 0.5 µg/mL

From here, focus on the item given below.
Inquiry: Which MIC is listed for CC[C@H]1OC(=O)[C@H](C)[C@@H](O[C@H]2C[C@@](C)(OC)[C@@H](O)[C@H](C)O2)[C@H](C)[C@@H](O[C@@H]2O[C@H](C)C[C@H](N(C)C)[C@H]2O)[C@](C)(O)C[C@@H](C)[C@@H](N2CCC(C)CC2)[C@H](C)[C@@H](O)[C@]1(C)O ?
Reply text: 0.5 µg/mL

Entry source: patent US5075289A
